- Organism: Rattus norvegicus
- Procedure summary: Open TG-GATES - Regimen: Single
- Format: toxicity, organism-based, Sprague-Dawley
- Set-up: regimen Single, gender Male, age 6 weeks
- Protocol conditions: in vivo, po, 0 mg/kg, 3 h, tissue Blood, route gavage, dose level Control
Assay readout: MCHC
Returns: string containing the numeric result and its unit.

Take a look at these entries with their results.
Molecule	MCHC
O=C(O)COc1nn(Cc2ccccc2)c2ccccc12	33.3%
CC[C@@H](CO)NCCN[C@@H](CC)CO	33.7%
CC(=O)N1CCN(c2ccc(OCC3COC(Cn4ccnc4)(c4ccc(Cl)cc4Cl)O3)cc2)CC1 (configuration not stated)	33.4%
CCN(CC)N=O	34.1%
CC(C)Cc1ccc(C(C)C(=O)O)cc1 (configuration not stated)	34.3%
CC(CCc1ccccc1)NCC(O)c1ccc(O)c(C(N)=O)c1 (configuration not stated)	33.6%

Prompt: // query MCHC value for entry CC(=O)Nc1ccc2c(c1)Cc1ccccc1-2
Completion: 34.5%

----------
- Species: Rattus norvegicus
- Procedure summary: Open TG-GATES - Regimen: Daily Repeat
- Format: toxicity, organism-based, Sprague-Dawley
- Parameters: regimen Daily Repeat, gender Male, age 6 weeks
- Protocol conditions: in vivo, po, 0 mg/kg, […], tissue Blood, route gavage, dose level Control, time 7 day
Assay readout: MCV (fL)
Give bare numbers, in fL.

Take a look at these entries with their results.
Compound	Reported result
CC(C)Cc1ccc(C(C)C(=O)O)cc1 (configuration not stated)	61.7
CC(N)=O [ACETAMIDE]	60.8
CC(=O)Nc1ccc2c(c1)Cc1ccccc1-2	62.1

# map each compound to its MCV
1. CC[C@@H](CO)NCCN[C@@H](CC)CO
2. CCN(CC)N=O

Completion:
61.4
61

# map each compound to its MCV
1. CC(CCc1ccccc1)NCC(O)c1ccc(O)c(C(N)=O)c1 (configuration not stated)
2. O=C(O)COc1nn(Cc2ccccc2)c2ccccc12

Completion:
1. 61
2. 63.2

----------
Exercise: for every item that follows, state its recorded MCH.
- Species: Rattus norvegicus
- Procedure summary: Open TG-GATES - Regimen: Single
- Format: toxicity, organism-based, Sprague-Dawley
- Parameters: regimen Single, gender Male, age 6 weeks
- Protocol conditions: in vivo, po, 0 mg/kg, 3 h, tissue Blood, route gavage, dose level Control
Numbers only, in pg.

Take a look at these entries with their results.
Molecule	MCH (pg)
CCN(CC)N=O [N-NITROSODIETHYLAMINE]	21.5
CC(=O)Nc1ccc2c(c1)Cc1ccccc1-2 [2-ACETYLAMINOFLUORENE]	21.5
CC(CCc1ccccc1)NCC(O)c1ccc(O)c(C(N)=O)c1 (configuration not stated) [LABETALOL]	21.4

# map each molecule to its MCH
1. O=C(O)COc1nn(Cc2ccccc2)c2ccccc12 [BENDAZAC]
2. CC[C@@H](CO)NCCN[C@@H](CC)CO [ETHAMBUTOL]
3. CC(=O)N1CCN(c2ccc(OCC3COC(Cn4ccnc4)(c4ccc(Cl)cc4Cl)O3)cc2)CC1 (configuration not stated) [KETOCONAZOLE]
4. CC(C)Cc1ccc(C(C)C(=O)O)cc1 (configuration not stated) [IBUPROFEN]

Completion:
[21.7, 22.3, 21.5, 21.5]

----------
- Organism: Rattus norvegicus
- Procedure summary: Open TG-GATES - Regimen: Daily Repeat
- Assay type: toxicity, organism-based, Sprague-Dawley
- Set-up: regimen Daily Repeat, gender Male, age 6 weeks
- Protocol conditions: in vivo, po, 0 mg/kg, […], tissue Plasma, route gavage, dose level Control, time 14 day
Exercise: for every item that follows, state its recorded TP.
Numbers only, in g/dL.

Take a look at these entries with their results.
Compound	TP, g/dL
CC(N)=O [ACETAMIDE]	5.8
CCN(CC)N=O [N-NITROSODIETHYLAMINE]	5.8
CC(=O)Nc1ccc2c(c1)Cc1ccccc1-2 [2-ACETYLAMINOFLUORENE]	5.9
CC[C@@H](CO)NCCN[C@@H](CC)CO [ETHAMBUTOL]	5.7
CC(CCc1ccccc1)NCC(O)c1ccc(O)c(C(N)=O)c1 (stereo not drawn) [LABETALOL]	6.2

# map each compound to its TP
1. CC(C)Cc1ccc(C(C)C(=O)O)cc1 (stereo not drawn) [IBUPROFEN]
2. CC(=O)N1CCN(c2ccc(OCC3COC(Cn4ccnc4)(c4ccc(Cl)cc4Cl)O3)cc2)CC1 (stereo not drawn) [KETOCONAZOLE]
3. O=C(O)COc1nn(Cc2ccccc2)c2ccccc12 [BENDAZAC]

Completion:
5.8
5.8
6.2
